# credit: patent US20240197756A1

test: Example 3 Part C: tablet single ascending doses, morning fasted vs 8 p.m., plasma pharmacokinetics; format: in vivo, human; conditions: human, in vivo, 40 mg
QUANTITY_MEASURED: Tmax (h)
I only need the number, in h, no unit after it.

Specify measured Tmax for COC[C@@]1(O)CC[C@@]2(C)[C@@H](CC[C@@H]3[C@@H]2CC[C@]2(C)[C@@H](C(=O)Cn4ccnc4)CC[C@@H]32)C1 .
1.5

* * *

Experiment: Example 3 Part C: tablet single ascending doses, morning fasted vs 8 p.m., plasma pharmacokinetics
Assay type: in vivo, human
Conditions: human, in vivo, 60 mg, 8 p.m. administration (60 mg), 4 h after dinner, N = 11; Mean (SD)
Protocol: Patients with severe major depressive disorder (MDD) aged 18 to 65 years were treated with an oral suspension or tablet of Compound 1 to study the effect of food and time of administration on the pharmacokinetics, as well as the safety and tolerability of these formulations. Part C is a randomized, participant- and Investigator-blinded, Sponsor-unblinded, placebo-controlled, parallel-group design to evaluate the pharmacokinetics and safety of single ascending doses of a Compound 1 citrate tablet. […]
QUANTITY_MEASURED: half-life (h)
I only need the number, in h, no unit after it.

Specify measured half-life for COC[C@@]1(O)CC[C@@]2(C)[C@@H](CC[C@@H]3[C@@H]2CC[C@]2(C)[C@@H](C(=O)Cn4ccnc4)CC[C@@H]32)C1 .
11.4

* * *

assay: Example 3 Part A: oral suspension administered at 4 p.m. vs 8 p.m., plasma pharmacokinetics; assay type: in vivo, human; details: human, in vivo, po, 45 mg, tmax
QUANTITY_MEASURED: Tmax (h)
I only need the number, in h, no unit after it.

Specify measured Tmax for COC[C@@]1(O)CC[C@@]2(C)[C@@H](CC[C@@H]3[C@@H]2CC[C@]2(C)[C@@H](C(=O)Cn4ccnc4)CC[C@@H]32)C1 [Compound 1] .
1.5

* * *

test: Example 3 Part C: tablet single ascending doses, morning fasted vs 8 p.m., plasma pharmacokinetics; format: in vivo, human; settings: human, in vivo, 60 mg, Cmax
QUANTITY_MEASURED: Cmax (ng/mL)
I only need the number, in ng/mL, no unit after it.

Specify measured Cmax for COC[C@@]1(O)CC[C@@]2(C)[C@@H](CC[C@@H]3[C@@H]2CC[C@]2(C)[C@@H](C(=O)Cn4ccnc4)CC[C@@H]32)C1 [Compound 1] .
408
